- EXPERIMENTAL PROTOCOL: Inhibition of Trypanosoma cruzi dihydroorotate dehydrogenase by isothermal titration calorimetry
- CONDITION DETAILS: read-out: Ki(app)
pKi: −log10 of the molar value.
PROPERTY MEASURED: pKi

[[record]]
molecule = "CN(C)Cc1c(C(=O)O)[nH]c(=O)[nH]c1=O"
measured_value = 3.52

[[record]]
molecule = "Nc1c(C(=O)O)[nH]c(=O)[nH]c1=O"
measured_value = 4.02

[[record]]
molecule = "O=C(O)c1[nH]c(=O)[nH]c(=O)c1F"
measured_value = 4.71


P. O=C(O)c1[nH]c(=O)[nH]c(=O)c1[N+](=O)[O-]
Q. O=C(O)c1nc(=O)[nH]c(=O)[nH]1 [OTERACIL]
R. O=C(O)c1cc(=O)[nH]c(=O)[nH]1 [OROTIC ACID]
## Input hey, can you rank those molecules up there by pKi? biggest number first please To answer, arrange all of the labels according to the requested order.
## Output Q, R, P

====

- EXPERIMENTAL PROTOCOL: Inhibition of Leishmania major dihydroorotate dehydrogenase by isothermal titration calorimetry
- CONDITION DETAILS: read-out: Ki(app)
PROPERTY MEASURED: Ki (µM)

I. Nc1c(C(=O)O)[nH]c(=O)[nH]c1=O
II. O=C(O)c1[nH]c(=O)[nH]c(=O)c1[N+](=O)[O-]
## Input Field: lower Ki | Options: I / II Field: selected label. Fill in the label of the entry you choose.
## Output I
